All figures here come from patent US20240400614A1.

Readings of % cleavage MMP-9 t = 15 min for the listed substances
target: MMP-9 (Homo sapiens); construct: purchased SIGMA PF024; assay: FRET peptide cleavage efficiency with MMP-9 (standard pH 7.5; also pH 6.5); type: biochemical; conditions: t = 15 min; standard conditions (Table 8)
Square brackets hold non-standard residues; d marks the D form. Ends that are not written are not given here. Tyr(3-NO2) = N[C@@H](Cc1ccc(O)c([N+](=O)[O-])c1)C(=O)O; Nle = CCCC[C@H](N)C(=O)O; 2Abz = Nc1ccccc1C(=O)O
observation_type: % cleavage MMP-9 t = 15 min (%)

• RGRRGP ([2Abz]RGRRGP[Tyr(3-NO2)]-NH2) [LNK048] = 0
• SGRVAPYMLQG ([2Abz]SGRVAPYMLQG[Tyr(3-NO2)]-NH2) [LNK042] = 55
• RGRKPY-Nle-LQG ([2Abz]RGRKPY[Nle]LQG[Tyr(3-NO2)]-NH2) [LNK036] = 28

----------
Readings of % cleavage MMP-9 t = 15 min for the listed substances
biological target: MMP-9 (Homo sapiens, UniProt P14780); construct: purchased SIGMA PF024; test: FRET peptide cleavage efficiency with MMP-9 (standard pH 7.5; also pH 6.5); assay type: biochemical; conditions: t = 15 min; standard conditions (Table 8)
Sequence (P14780 94-707): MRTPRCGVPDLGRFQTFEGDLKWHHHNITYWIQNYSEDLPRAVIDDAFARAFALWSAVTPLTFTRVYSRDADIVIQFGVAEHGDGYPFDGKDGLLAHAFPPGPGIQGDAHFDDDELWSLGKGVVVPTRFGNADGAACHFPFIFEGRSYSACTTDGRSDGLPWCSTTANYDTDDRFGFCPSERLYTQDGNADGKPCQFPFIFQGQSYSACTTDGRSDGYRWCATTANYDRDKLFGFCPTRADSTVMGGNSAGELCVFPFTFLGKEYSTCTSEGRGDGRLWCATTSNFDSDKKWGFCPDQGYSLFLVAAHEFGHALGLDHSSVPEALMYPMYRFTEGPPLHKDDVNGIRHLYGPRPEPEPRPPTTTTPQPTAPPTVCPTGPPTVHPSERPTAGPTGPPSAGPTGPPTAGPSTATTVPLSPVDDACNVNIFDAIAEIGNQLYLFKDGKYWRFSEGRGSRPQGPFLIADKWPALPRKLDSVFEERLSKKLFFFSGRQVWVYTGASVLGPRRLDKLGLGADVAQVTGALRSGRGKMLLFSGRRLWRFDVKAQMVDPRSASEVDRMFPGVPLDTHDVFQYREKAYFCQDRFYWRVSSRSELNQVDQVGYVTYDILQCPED
Square brackets hold non-standard residues; d marks the D form. Ends that are not written are not given here. Tyr(3-NO2) = N[C@@H](Cc1ccc(O)c([N+](=O)[O-])c1)C(=O)O; Nle = CCCC[C@H](N)C(=O)O; 2Abz = Nc1ccccc1C(=O)O
observation_type: % cleavage MMP-9 t = 15 min (%)

* SGRVAPY-Nle-LQG ([2Abz]SGRVAPY[Nle]LQG[Tyr(3-NO2)]-NH2) [LNK043] | 32
* SGRVYMLQG ([2Abz]SGRVYMLQG[Tyr(3-NO2)]-NH2) [LNK044] | 0
* SGRVQPLVD (not fully specified (N-terminus, C-terminus)) [LNK047] | 1
* RGRKSPYMLQG ([2Abz]RGRKSPYMLQG[Tyr(3-NO2)]-NH2) [LNK037] | 46
* SGRVAPQPLVD (not fully specified (N-terminus, C-terminus)) [LNK046] | 23
* RGRKVANLVG ([2Abz]RGRKVANLVG[Tyr(3-NO2)]-NH2) [LNK031] | 75
* RGRKSPANLVG ([2Abz]RGRKSPANLVG[Tyr(3-NO2)]-NH2) [LNK034] | 100
* RGRKPYMLQG ([2Abz]RGRKPYMLQG[Tyr(3-NO2)]-NH2) [LNK035] | 42
* RGRKSQPLVD ([2Abz]RGRKSQPLVD[Tyr(3-NO2)]-NH2) [LNK041] | 0

----------
Target: matriptase (Homo sapiens)
Construct: purchased R&D Systems 3946-SEB
Sequence (Q9Y5Y6 615-855 limits assumed): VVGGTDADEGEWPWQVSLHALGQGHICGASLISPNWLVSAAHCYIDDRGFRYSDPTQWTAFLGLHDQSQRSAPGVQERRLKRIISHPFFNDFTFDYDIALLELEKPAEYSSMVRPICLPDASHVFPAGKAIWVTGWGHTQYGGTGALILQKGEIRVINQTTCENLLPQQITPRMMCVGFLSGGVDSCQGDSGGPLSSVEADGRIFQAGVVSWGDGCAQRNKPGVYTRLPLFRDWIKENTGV
Experiment: FRET peptide cleavage efficiency with matriptase
Type: biochemical
Conditions: t = 60 min; 200 uM linker, 1 ug/ml protease, 37° C., buffer B pH 9.0
Square brackets hold non-standard residues; d marks the D form. Ends that are not written are not given here. Tyr(3-NO2) = N[C@@H](Cc1ccc(O)c([N+](=O)[O-])c1)C(=O)O; 2Abz = Nc1ccccc1C(=O)O
observation_type: % cleavage Matriptase t = 60 min (%)

* SSRAVFRKNLGPLGLAG ([2Abz]SSRAVFRKNLGPLGLAG[Tyr(3-NO2)]-NH2) [LNK002] | 85
* RGRRAANLVRPLGYFGKL ([2Abz]RGRRAANLVRPLGYFGKL[Tyr(3-NO2)]-NH2) [LNK060] | 100
* SSLQSSPG ([2Abz]SSLQSSPG[Tyr(3-NO2)]-NH2) [LNK066] | 0
* SQYQSSPG ([2Abz]SQYQSSPG[Tyr(3-NO2)]-NH2) [LNK067] | 0
* SGRVANLVG (not fully specified (N-terminus, C-terminus)) [LNK017] | 81
* RGRRPLGLAG ([2Abz]RGRRPLGLAG[Tyr(3-NO2)]-NH2) [LNK049] | 70
* SGRVLRKAGPANLVG ([2Abz]SGRVLRKAGPANLVG[Tyr(3-NO2)]-NH2) [LNK014] | 95
* SGRVLPYAMTA ([2Abz]SGRVLPYAMTA[Tyr(3-NO2)]-NH2) [LNK024] | 92
* SGRVLGPLNLSG ([2Abz]SGRVLGPLNLSG[Tyr(3-NO2)]-NH2) [LNK008] | 72
* RGRRVANPLGYFGKL ([2Abz]RGRRVANPLGYFGKL[Tyr(3-NO2)]-NH2) [LNK058] | 100
* SGRHSSKLQPLGYFGKL ([2Abz]SGRHSSKLQPLGYFGKL[Tyr(3-NO2)]-NH2) [LNK063] | 35
* SSRGRRGPYMLQG ([2Abz]SSRGRRGPYMLQG[Tyr(3-NO2)]-NH2) [LNK021] | 100
* RRLNYSL ([2Abz]RRLNYSL[Tyr(3-NO2)]-NH2) [LNK074] | 6
* RSSYRSL ([2Abz]RSSYRSL[Tyr(3-NO2)]-NH2) [LNK075] | 33
* RRLHYSL ([2Abz]RRLHYSL[Tyr(3-NO2)]-NH2) [LNK073] | 3
* SGRVLTLRKAALPLAM ([2Abz]SGRVLTLRKAALPLAM[Tyr(3-NO2)]-NH2) [LNK020] | 99
* SGRVLPANLVG ([2Abz]SGRVLPANLVG[Tyr(3-NO2)]-NH2) [LNK015] | 78
* SSRGPYMLQG ([2Abz]SSRGPYMLQG[Tyr(3-NO2)]-NH2) [LNK022] | 9
* RSSYYSL ([2Abz]RSSYYSL[Tyr(3-NO2)]-NH2) [LNK076] | 0
